Target: T1, EsCas13d, nuclease-dead (Eubacterium siraeum, UniProt B0MS50, R295A;H300A;R849A;H854A)
T1 sequence: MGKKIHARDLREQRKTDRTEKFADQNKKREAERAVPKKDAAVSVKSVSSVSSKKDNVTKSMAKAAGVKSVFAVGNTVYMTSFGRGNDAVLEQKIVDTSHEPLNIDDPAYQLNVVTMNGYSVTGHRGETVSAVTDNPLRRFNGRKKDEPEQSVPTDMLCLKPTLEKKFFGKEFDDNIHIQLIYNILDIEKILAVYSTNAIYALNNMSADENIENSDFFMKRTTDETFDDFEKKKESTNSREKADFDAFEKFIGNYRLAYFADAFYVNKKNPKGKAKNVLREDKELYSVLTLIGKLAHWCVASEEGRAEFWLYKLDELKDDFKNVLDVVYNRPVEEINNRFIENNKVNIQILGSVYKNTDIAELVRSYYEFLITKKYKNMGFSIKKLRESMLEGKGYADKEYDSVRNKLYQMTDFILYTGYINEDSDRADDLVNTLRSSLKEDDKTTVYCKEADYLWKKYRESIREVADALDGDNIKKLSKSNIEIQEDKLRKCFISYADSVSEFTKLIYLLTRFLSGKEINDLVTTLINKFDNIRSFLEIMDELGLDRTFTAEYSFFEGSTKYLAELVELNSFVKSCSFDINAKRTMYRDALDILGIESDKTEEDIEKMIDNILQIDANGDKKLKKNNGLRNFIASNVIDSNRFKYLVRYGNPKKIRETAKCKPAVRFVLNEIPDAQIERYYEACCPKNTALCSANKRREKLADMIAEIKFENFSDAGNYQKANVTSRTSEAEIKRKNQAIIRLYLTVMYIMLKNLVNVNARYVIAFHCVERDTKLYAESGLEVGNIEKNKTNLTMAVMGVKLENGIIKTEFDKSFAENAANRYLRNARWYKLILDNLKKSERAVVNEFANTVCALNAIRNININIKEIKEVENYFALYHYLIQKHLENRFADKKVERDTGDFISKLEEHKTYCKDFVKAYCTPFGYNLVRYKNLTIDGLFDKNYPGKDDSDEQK
Test: crRNA (strand 1, pre-loaded); Mg2+; 40 mM Tris-HCl pH 7.5, 150 mM NaCl, 6 mM MgCl2, 1 mM DTT, 0.1% Tween-20, 0.2 mg/ml BSA; 25 C; 10 min per concentration, then washed
Conditions: tags: His6-TwinStrep-SUMO cleaved; N-terminal SNAP kept (SNAP-Surface 488); label: 3' end held by stalled T7 RNA polymerase
Decide using Kd alone. Strictly below 30 nM: label 1. Equal to or above 30 nM: label 0.

{"columns": ["binder", "class"],
 "data": [
  ["target 1 insU 3' of 14,insA 3' of 8 (mixed) RNA 1: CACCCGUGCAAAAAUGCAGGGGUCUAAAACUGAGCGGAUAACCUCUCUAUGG RNA 2: GGGAAUGGAUCCACAUCUACGAAUUCGUACCAUAGAGAUGGUUAUACCGCUCACCGAGAUCGGAAGAGCACACGU", "label 0"],
  ["target 1 C2A,A18C (mixed) RNA 1: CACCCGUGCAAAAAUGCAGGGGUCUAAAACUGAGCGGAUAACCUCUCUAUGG RNA 2: GGGAAUGGAUCCACAUCUACGAAUUCGUACCAUCGAGAGGUUAUCCGCUAACCGAGAUCGGAAGAGCACACGU", "label 0"],
  ["target 1 insA 3' of 13,insA 3' of 5 (mixed) RNA 1: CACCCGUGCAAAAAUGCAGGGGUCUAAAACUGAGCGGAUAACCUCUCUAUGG RNA 2: GGGAAUGGAUCCACAUCUACGAAUUCGUACCAUAGAGAGAGUUAUCCGACUCACCGAGAUCGGAAGAGCACACGU", "label 1"],
  ["target 2 MT 5'PFS GAA 3'PFS UGU (mixed) RNA 1: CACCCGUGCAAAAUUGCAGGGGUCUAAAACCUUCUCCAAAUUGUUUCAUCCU RNA 2: GGGAAUGGAUCCACAUCUACGAAUUCGAAAGGAUGAAACAAUUUGGAGAAGUGUAGAUCGGAAGAGCACACGU", "label 1"],
  ["target 1 C7A,G15U (mixed) RNA 1: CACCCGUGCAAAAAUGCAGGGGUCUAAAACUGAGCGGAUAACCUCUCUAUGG RNA 2: GGGAAUGGAUCCACAUCUACGAAUUCGUACCAUAGAUAGGUUAUACGCUCACCGAGAUCGGAAGAGCACACGU", "label 1"],
  ["target 1 insC 3' of 17,insC 3' of 13 (mixed) RNA 1: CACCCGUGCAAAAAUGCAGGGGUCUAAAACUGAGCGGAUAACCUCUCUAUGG RNA 2: GGGAAUGGAUCCACAUCUACGAAUUCGUACCAUAGCAGAGCGUUAUCCGCUCACCGAGAUCGGAAGAGCACACGU", "label 0"],
  ["target 1 MT 5'PFS CCU 3'PFS UCA (mixed) RNA 1: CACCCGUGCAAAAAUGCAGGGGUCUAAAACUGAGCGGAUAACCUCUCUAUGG RNA 2: GGGAAUGGAUCCACAUCUACGAAUUCCCUCCAUAGAGAGGUUAUCCGCUCAUCAAGAUCGGAAGAGCACACGU", "label 1"],
  ["target 2 MT 5'PFS AUU 3'PFS CAC (mixed) RNA 1: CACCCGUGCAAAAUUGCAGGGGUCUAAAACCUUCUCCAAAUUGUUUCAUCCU RNA 2: GGGAAUGGAUCCACAUCUACGAAUUCAUUAGGAUGAAACAAUUUGGAGAAGCACAGAUCGGAAGAGCACACGU", "label 1"],
  ["target 2 MT 5'PFS UUG 3'PFS CUC (mixed) RNA 1: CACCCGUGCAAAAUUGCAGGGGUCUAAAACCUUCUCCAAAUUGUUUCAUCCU RNA 2: GGGAAUGGAUCCACAUCUACGAAUUCUUGAGGAUGAAACAAUUUGGAGAAGCUCAGAUCGGAAGAGCACACGU", "label 0"],
  ["target 2 MT 5'PFS CUG 3'PFS AAA (mixed) RNA 1: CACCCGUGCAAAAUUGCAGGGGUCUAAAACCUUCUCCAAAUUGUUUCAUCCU RNA 2: GGGAAUGGAUCCACAUCUACGAAUUCCUGAGGAUGAAACAAUUUGGAGAAGAAAAGAUCGGAAGAGCACACGU", "label 1"],
  ["target 2 MT 5'PFS UCA 3'PFS AAA (mixed) RNA 1: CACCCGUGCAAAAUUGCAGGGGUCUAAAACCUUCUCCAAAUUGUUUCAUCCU RNA 2: GGGAAUGGAUCCACAUCUACGAAUUCUCAAGGAUGAAACAAUUUGGAGAAGAAAAGAUCGGAAGAGCACACGU", "label 1"],
  ["target 2 MT 5'PFS AUA 3'PFS CUC (mixed) RNA 1: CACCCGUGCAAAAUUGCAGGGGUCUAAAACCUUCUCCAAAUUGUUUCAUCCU RNA 2: GGGAAUGGAUCCACAUCUACGAAUUCAUAAGGAUGAAACAAUUUGGAGAAGCUCAGAUCGGAAGAGCACACGU", "label 1"],
  ["target 1 MT 5'PFS GGC 3'PFS GCU (mixed) RNA 1: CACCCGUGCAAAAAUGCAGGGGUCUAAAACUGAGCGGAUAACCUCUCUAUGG RNA 2: GGGAAUGGAUCCACAUCUACGAAUUCGGCCCAUAGAGAGGUUAUCCGCUCAGCUAGAUCGGAAGAGCACACGU", "label 1"],
  ["target 2 MT 5'PFS UGA 3'PFS ACU (mixed) RNA 1: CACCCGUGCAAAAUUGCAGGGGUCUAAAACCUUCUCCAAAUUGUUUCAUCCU RNA 2: GGGAAUGGAUCCACAUCUACGAAUUCUGAAGGAUGAAACAAUUUGGAGAAGACUAGAUCGGAAGAGCACACGU", "label 1"]
]}
